assay: In vivo clearance after administration in rat; format: ADME, organism-based; settings: blood, read-out: CLb
Listed next: entries and their corresponding clearance.
Supply the numeric figure in mL/min/kg, leaving out any unit text.

// worked examples, clearance included
INSERT INTO results (record_smiles, assay_metric, result) VALUES
  ('CN1CCN(c2nccc3cc4c(cc23)N(C(=O)c2cccc3ncccc23)CC4)CC1', 'clearance', 75),
  ('CCc1c(C(=O)N2CCc3cc4ccnc(N5CCN(C)CC5)c4cc32)cnn1-c1ccc(C#N)cc1', 'clearance', 28),
  ('CN1CCN(c2nccc3cc4c(cc23)N(C(=O)c2ccc(Cl)cc2)CC4)CC1', 'clearance', 29),
  ('Cc1c(C(=O)N2CCc3cc4ccnc(N5CCN(C)CC5)c4cc32)cnn1-c1ccccc1', 'clearance', 32),
  ('Cc1nc(C)c(C(=O)N2CCc3cc4ccnc(N5CCN(C)CC5)c4cc32)o1', 'clearance', 39),
  ('CN1CCN(c2nccc3cc4c(cc23)N(C(=O)c2cnn(C)c2C(F)(F)F)CC4)CC1', 'clearance', 48);

Now consider the entry below.
Could you tell me which clearance is on file for CN1CCN(c2nccc3cc4c(cc23)N(C(=O)c2ccc(C#N)cc2)CC4)CC1 ?
19

###

molecular target: 5-hydroxytryptamine receptor 1D (Homo sapiens, UniProt P28221); experiment: Mean binding affinity towards 5-hydroxytryptamine 1D receptor using [3H]5-HT or [3H]-8-OH-DPAT as the radioligand
Sequence (P28221 whole entry): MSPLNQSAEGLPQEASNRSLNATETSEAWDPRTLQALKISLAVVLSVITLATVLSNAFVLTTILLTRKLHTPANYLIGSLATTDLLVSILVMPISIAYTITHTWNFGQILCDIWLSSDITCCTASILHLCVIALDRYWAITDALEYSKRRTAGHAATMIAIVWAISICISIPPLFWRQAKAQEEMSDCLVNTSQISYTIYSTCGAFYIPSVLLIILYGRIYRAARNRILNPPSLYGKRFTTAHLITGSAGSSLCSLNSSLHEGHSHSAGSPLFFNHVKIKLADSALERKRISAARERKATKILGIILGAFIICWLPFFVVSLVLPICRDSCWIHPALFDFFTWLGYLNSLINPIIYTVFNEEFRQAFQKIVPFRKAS
Listed next: entries and their corresponding Ki.
Supply the numeric figure in nM, leaving out any unit text.

// worked examples, Ki included
INSERT INTO results (record_smiles, u, result) VALUES
  ('CCc1c(C(=O)N2CCc3cc4ccnc(N5CCN6CCC[C@H]6C5)c4cc32)cnn1-c1ccc(C#N)cc1', 'nM', 3.16),
  ('CCc1c(C(=O)N2CCc3cc4ccnc(N5CCNCC5)c4cc32)cnn1-c1ccc(C#N)cc1', 'nM', 2.51),
  ('CCc1c(C(=O)N2CCc3cc4ccnc(N5CCN6CCC[C@@H]6C5)c4cc32)cnn1-c1ccc(C#N)cc1', 'nM', 1),
  ('CN1CCN(c2cc3c(cc2Cl)CCN3C(=O)Nc2ccc(-c3ccncc3)c3ccccc23)CC1', 'nM', 2);

Could you tell me which Ki is on file for CN1CCN(c2nccc3cc4c(cc23)N(C(=O)c2cnn3ccccc23)CC4)CC1 ?
1.26

Try CN1CCN(c2nccc3cc4c(cc23)N(C(=O)c2ccc(Cl)cc2)CC4)CC1 next.
0.501

Try CCc1c(C(=O)N2CCc3cc4ccnc(N5CCN(C)CC5)c4cc32)cnn1-c1ccc(C#N)cc1 next.
0.631

Try CCc1c(C(=O)N2CCc3cc4ccnc(N5C[C@@H](C)N[C@@H](C)C5)c4cc32)cnn1-c1ccc(C#N)cc1 next.
7.94

Try Cc1cc(C(=O)N2CCc3cc4ccnc(N5CCN(C)CC5)c4cc32)c(C(F)(F)F)o1 next.
7.94

###

experiment: Oral bioavailability in rat; assay type: ADME, organism-based; conditions: in vivo
assay metric: bioavailability (%)
Supply the numeric figure in %, leaving out any unit text.

// worked examples, bioavailability included
INSERT INTO results (record_smiles, result) VALUES
  ('Cc1c(C(=O)N2CCc3cc4ccnc(N5CCN(C)CC5)c4cc32)cnn1-c1ccccc1', 40),
  ('Cc1nc(C)c(C(=O)N2CCc3cc4ccnc(N5CCN(C)CC5)c4cc32)o1', 55);

Could you tell me which bioavailability is on file for CCc1c(C(=O)N2CCc3cc4ccnc(N5CCN(C)CC5)c4cc32)cnn1-c1ccc(C#N)cc1 ?
50

All figures here come from ChEMBL document CHEMBL1142743.
